- subject_of_test: UniProt:P9WPJ9
- Sequence (P9WPJ9 whole entry): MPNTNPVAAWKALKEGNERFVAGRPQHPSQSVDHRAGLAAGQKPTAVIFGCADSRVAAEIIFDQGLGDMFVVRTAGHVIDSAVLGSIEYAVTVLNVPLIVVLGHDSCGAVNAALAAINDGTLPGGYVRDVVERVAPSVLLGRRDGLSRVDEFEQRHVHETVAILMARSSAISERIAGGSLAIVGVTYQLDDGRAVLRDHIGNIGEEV
endpoint_label: pKi
Friendly reminder that pKi comes from taking -log10 of the concentration in mol/L.

// pKi value for `NS(=O)(=O)c1ccc(S(=O)(=O)Nc2cccc3c(Cl)c[nH]c23)cc1` : 6.14

// pKi value for `NS(=O)(=O)c1ccc(CO)cc1` : 4.42

====

Entries below carry reported Ki on UniProtKB P9WPJ9.
// note: answer is a bare numeric in µM

molecule=Nc1ccc(S(N)(=O)=O)cc1I unit_of_measure=µM result_value=32.4
molecule=Nc1ccc(S(=O)(=O)NCCc2ccc(S(N)(=O)=O)cc2)cc1 unit_of_measure=µM result_value=2.29
molecule=NCCc1ccc(S(N)(=O)=O)cc1 unit_of_measure=µM result_value=29.1

Given the molecule Cc1ccc(S(N)(=O)=O)cc1 [P-TOLUENESULFONAMIDE] and test system UniProtKB P9WPJ9, the measured Ki is 38.9

Given the molecule NCc1ccc(S(N)(=O)=O)cc1 [MAFENIDE] and test system UniProtKB P9WPJ9, the measured Ki is 30.7

Given the molecule `NS(=O)(=O)c1nnc(-c2ccccc2Cl)s1` and test system UniProtKB P9WPJ9, the measured Ki is 45.2

Given the molecule `Nc1ccc(S(N)(=O)=O)cc1Br` and test system UniProtKB P9WPJ9, the measured Ki is 31.6
